Target: human PCSK9 (Homo sapiens, UniProt Q8NBP7)
Sequence (Q8NBP7 153-692): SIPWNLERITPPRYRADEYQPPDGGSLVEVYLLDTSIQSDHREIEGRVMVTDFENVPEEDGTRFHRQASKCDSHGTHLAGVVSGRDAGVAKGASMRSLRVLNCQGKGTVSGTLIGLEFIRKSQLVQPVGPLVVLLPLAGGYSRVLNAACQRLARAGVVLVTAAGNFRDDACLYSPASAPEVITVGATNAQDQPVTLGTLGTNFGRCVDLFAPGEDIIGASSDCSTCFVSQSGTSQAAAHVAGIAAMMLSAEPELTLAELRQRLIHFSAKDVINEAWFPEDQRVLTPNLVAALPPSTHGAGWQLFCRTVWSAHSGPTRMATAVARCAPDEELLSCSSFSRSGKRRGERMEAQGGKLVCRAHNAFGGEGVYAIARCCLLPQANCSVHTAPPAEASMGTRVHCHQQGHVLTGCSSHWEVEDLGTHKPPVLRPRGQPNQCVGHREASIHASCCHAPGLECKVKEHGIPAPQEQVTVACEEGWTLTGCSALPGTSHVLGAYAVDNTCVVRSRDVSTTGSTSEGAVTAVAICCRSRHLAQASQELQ
Sequence (Q8NBP7 31-152 partner limits assumed): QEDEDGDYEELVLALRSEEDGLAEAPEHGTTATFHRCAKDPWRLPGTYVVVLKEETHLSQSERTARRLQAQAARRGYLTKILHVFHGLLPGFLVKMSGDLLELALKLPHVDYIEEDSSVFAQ
Assay: PCSK9 ligand binding TR-FRET assay (interference with binding of human PCSK9 to human LDLR)
Settings: PCSK9 FRET assay, efficacy (Amax); 100% = 1 uM unlabeled human PCSK9, 0% = DMSO
Label Satisfied when Max % inhibition is at or above 90%; otherwise label Not satisfied.

compound="COC[C@@H]1NC(=O)[C@H](CCN)N(Cc2ccc(Cl)cc2Oc2ccc(-c3cnc(CN(C)C)n3C)cc2)C(=O)C[C@@H](Cc2ccccc2)C(=O)N(C)[C@H]2CCCC[C@@H]2NC(=O)C[C@H](Cc2ccc(Cl)cc2)N(C)C1=O (single isomer, unassigned)" label_value="Not satisfied"
compound=COC[C@@H]1NC(=O)[C@H](C)N(Cc2ccc(Cl)cc2Oc2ccc(-c3cnc(CN(C)C)n3C)cc2)C(=O)C[C@@H](Cc2cccc[n+]2[O-])C(=O)N(C)[C@H]2CCCC[C@@H]2NC(=O)C[C@H](Cc2ccc(Cl)cc2)N(C)C1=O label_value=Satisfied
compound=Cc1c(CN(C)C)ncn1-c1ccc(Oc2cc(Cl)ccc2CN2C(=O)C[C@@H](Cc3ccccc3)C(=O)N(C)[C@H]3CCCC[C@@H]3NC(=O)C[C@H](Cc3ccc(Cl)cc3)N(C)C(=O)[C@H](CO)NC(=O)[C@@H]2C)cc1 label_value=Satisfied
compound=COC[C@@H]1NC(=O)[C@H](C)N(Cc2ccc(Cl)cc2Oc2ccc(-c3cnc(CN(C)C)n3C)cc2)C(=O)CC2(CC2)C(=O)N(C)[C@@H](C)CNC(=O)C[C@H](Cc2ccc(Cl)cc2)N(C)C1=O label_value="Not satisfied"
compound=COC[C@@H]1NC(=O)[C@H](C)N(Cc2ccc(Cl)cc2Oc2ccc(-c3cnc(CN4CC[C@H](O)C4)n3C)cc2)C(=O)C[C@@H](Cc2ccccc2)C(=O)N(C)[C@@H](C)CNC(=O)C[C@H](Cc2ccc(Cl)cc2)N(C)C1=O label_value=Satisfied
compound=COC[C@@H]1NC(=O)[C@H](C)N(Cc2ccc(Cl)cc2Oc2ccc(-c3cnc(CN(C)C)n3C)cc2)C(=O)C[C@@H](CC(F)=C(F)F)C(=O)N(C)[C@H]2CCCC[C@@H]2NC(=O)C[C@H](Cc2ccc(Cl)cc2)N(C)C1=O label_value="Not satisfied"
compound=COC[C@@H]1NC(=O)[C@H](CCCNC(=O)OC(C)(C)C)N(Cc2ccc(Cl)cc2Oc2ccc(-c3cnc(CN(C)C)n3C)cc2)C(=O)C[C@@H](Cc2ccccc2)C(=O)N(C)[C@H]2CCCC[C@@H]2NC(=O)C[C@H](Cc2ccc(Cl)cc2)N(C)C1=O label_value=Satisfied
compound=COC[C@@H]1NC(=O)[C@H](CCC(=O)N2CCOCC2)N(Cc2ccc(Cl)cc2Oc2ccc(-c3cnc(CN(C)C)n3C)cc2)C(=O)C[C@@H](Cc2ccccc2)C(=O)N(C)[C@H]2CCCC[C@@H]2NC(=O)C[C@H](Cc2ccc(Cl)cc2)N(C)C1=O label_value=Satisfied

Determine whether this compound has Max % inhibition no lower than 90%: COC[C@@H]1NC(=O)[C@H](CCCN2CCOCC2)N(Cc2ccc(Cl)cc2Oc2ccc(-c3cnc(CN(C)C)n3C)cc2)C(=O)C[C@@H](Cc2ccccc2)C(=O)N(C)[C@@H](C)[C@H](C)NC(=O)C[C@H](Cc2ccc(Cl)cc2)N(C)C1=O Satisfied

Determine whether this compound has Max % inhibition no lower than 90%: COC[C@@H]1NC(=O)[C@H](C)N(Cc2ccc(Cl)cc2Oc2ccc(-c3cnc4c(c3)CN(C(=O)[C@@H]3CCNC3)CC4)cc2)C(=O)C[C@@H](Cc2ccccc2)C(=O)N(C)[C@@H](C)CNC(=O)C[C@H](Cc2ccc(Cl)cc2)N(C)C1=O Not satisfied

Determine whether this compound has Max % inhibition no lower than 90%: COC[C@@H]1NC(=O)[C@H](CC(=O)OC(C)(C)C)N(Cc2ccc(Cl)cc2Oc2ccc(-c3cnc(CN(C)C)n3C)cc2)C(=O)C[C@@H](Cc2ccccc2)C(=O)N(C)[C@H]2CCCC[C@@H]2NC(=O)C[C@H](Cc2ccc(Cl)cc2)N(C)C1=O Satisfied

Determine whether this compound has Max % inhibition no lower than 90%: COC[C@@H]1NC(=O)[C@H](C)N(Cc2ccc(Cl)cc2Oc2ccc(-n3cnc(CN4CCOCC4)c3C)cc2)C(=O)C[C@@H](Cc2ccccc2)C(=O)N(C)[C@H]2CCCC[C@@H]2NC(=O)C[C@H](Cc2ccc(Cl)cc2)N(C)C1=O Satisfied

Determine whether this compound has Max % inhibition no lower than 90%: C[C@H]1CNC(=O)C[C@H](Cc2ccc(Cl)cc2)N(C)C(=O)[C@H](CC(=O)OC(C)(C)C)NC(=O)[C@H](C)N(Cc2ccc(Cl)cc2Oc2ccc(-c3cnc(CN(C)C)n3C)cc2)C(=O)C[C@@H](Cc2ccccc2)C(=O)N1C Satisfied

Determine whether this compound has Max % inhibition no lower than 90%: COC[C@@H]1NC(=O)[C@H](C)N(Cc2ccc(Cl)cc2Oc2ccc(-c3cnc(CN(C)C)n3C)cc2)C(=O)C[C@@H](Cc2ccccc2)C(=O)N(C)[C@@H]2CCOC[C@H]2NC(=O)C[C@H](Cc2ccc(Cl)cc2)N(C)C1=O Satisfied

* * *

Target: human PCSK9 (Homo sapiens)
Experiment: PCSK9 ligand binding TR-FRET assay (interference with binding of human PCSK9 to human LDLR)
Conditions: TR-FRET; human PCSK9 Alexa Fluor 647 / human LDLR extracellular domain-Europium Kryptate; read-out: PCSK9 FRET Assay IC50
observed-property: IC50

Below: 3 compounds and their reported IC50.
compound="COC[C@H]1C(=O)N(C)[C@@H](Cc2ccc(Cl)cc2)CC(=O)NC[C@H](C)N(C)C(=O)[C@H](Cc2ccccc2)CC(=O)N(Cc2ccc(Cl)cc2Oc2ccc(-c3cnc(CN(C)C)n3C)cc2)[C@H]2CC(=O)N1C2=O [Compound 13]" assay_result="106 nM"
compound="C[C@@H]1CC(=O)N(Cc2ccc(Cl)cc2Oc2ccc(-c3cnc(CN(C)C)n3C)cc2)[C@@H](C)C(=O)N[C@@H](CO)C(=O)N(C)[C@@H](Cc2ccc(Cl)cc2)CC(=O)NC[C@H](C)N(C)C1=O [Compound 193]" assay_result="6.1 nM"
compound="COC[C@@H]1NC(=O)[C@H](C)N(Cc2ccc(Cl)cc2Oc2ccc(-c3cnc(CN4CCCC4)n3C)cc2)C(=O)C[C@@H](Cc2ccccc2)C(=O)N(C)C2CCOCC2NC(=O)C[C@H](Cc2ccc(Cl)cc2)N(C)C1=O (single isomer, unassigned) [Compound 274]" assay_result="1.4 nM"

Note IC50 for the compound shown: COC[C@@H]1NC(=O)[C@H](C)N(Cc2ccc(Cl)cc2Oc2ccc(-c3nnc4n3CCN(C(=O)[C@@H]3CCNC3)C4)cc2)C(=O)C[C@@H](Cc2ccccc2)C(=O)N(C)[C@@H](C)CNC(=O)C[C@H](Cc2ccc(Cl)cc2)N(C)C1=O [Compound 129] 6.3 nM

* * *

Item-by-item account of IC50
Target: human PCSK9 (Homo sapiens, UniProt Q8NBP7)
Test: PCSK9 ligand binding TR-FRET assay (interference with binding of human PCSK9 to human LDLR)
Settings: TR-FRET; human PCSK9 Alexa Fluor 647 / human LDLR extracellular domain-Europium Kryptate; read-out: PCSK9 FRET Assay IC50
Field: numeric (nM). Do not append units.

Below: 3 molecules and their reported IC50.
record_smiles=COC[C@@H]1NC(=O)[C@H](C)N(Cc2c(F)cc(F)cc2Oc2ccc(-c3cnc(CN(C)C)n3C)cc2)C(=O)C[C@@H](Cc2ccccc2)C(=O)N(C)[C@@H](C)CNC(=O)C[C@H](Cc2ccc(Cl)cc2)N(C)C1=O assay_result=6.6
record_smiles=C[C@H]1CNC(=O)C[C@H](Cc2ccc(Cl)cc2)NC(=O)[C@H](CF)NC(=O)[C@H](C)N(Cc2ccc(Cl)cc2Oc2ccc(-c3cnc(CN4CCCC4)n3C)cc2)C(=O)C[C@@H](Cc2ccccc2)C(=O)N1C assay_result=113
record_smiles=COC[C@@H]1NC(=O)[C@H](CCN(C)C)N(Cc2ccc(Cl)cc2Oc2ccc(-c3cnc(CN(C)C)n3C)cc2)C(=O)C[C@@H](Cc2ccccc2)C(=O)N(C)[C@H]2CCCC[C@@H]2NC(=O)C[C@H](Cc2ccc(Cl)cc2)N(C)C1=O assay_result=0.6

Consider the record given below.
Note IC50 for the molecule shown: COC[C@@H]1NC(=O)[C@H](C)N(Cc2ccc(Cl)cc2Oc2ccc(-c3nnc4n3CCNC4)cc2)C(=O)C[C@@H](Cc2ccccc2)C(=O)N(C)[C@@H](C)CNC(=O)C[C@H](Cc2ccc(Cl)cc2)N(C)C1=O 4.5

* * *

Target: human PCSK9 (Homo sapiens, UniProt Q8NBP7)
Test: PCSK9 ligand binding TR-FRET assay (interference with binding of human PCSK9 to human LDLR)
Details: PCSK9 FRET assay, efficacy (Amax); 100% = 1 uM unlabeled human PCSK9, 0% = DMSO
observed-property: Max % inhibition (%)
Field: numeric (%). Do not append units.

molecule=COC[C@H]1C(=O)N(C)[C@@H](Cc2ccc(Cl)cc2)CC(=O)NC[C@H](C)N(C)C(=O)[C@H](Cc2ccccc2)CC(=O)N(Cc2ccc(Cl)cc2Oc2ccc(-c3cnc(CN(C)C)n3C)cc2)[C@H]2CC(=O)N1C2=O observed_property="Max % inhibition" assay_result=101.32
molecule=C[C@@H]1CC(=O)N(Cc2ccc(Cl)cc2Oc2ccc(-c3cnc(CN(C)C)n3C)cc2)[C@@H](C)C(=O)N[C@@H](CO)C(=O)N(C)[C@@H](Cc2ccc(Cl)cc2)CC(=O)N[C@H]2CCCC[C@@H]2N(C)C1=O observed_property="Max % inhibition" assay_result=80.18
molecule=CNc1ncc(-c2ccc(Oc3cc(Cl)ccc3CN3C(=O)C[C@@H](Cc4ccccc4)C(=O)N(C)[C@@H](C)CNC(=O)C[C@H](Cc4ccc(Cl)cc4)N(C)C(=O)[C@H](COC)NC(=O)[C@@H]3C)cc2)cn1 observed_property="Max % inhibition" assay_result=56.62

Please respond with reported Max % inhibition (system human PCSK9 (Homo sapiens, UniProt Q8NBP7)) for COC[C@@H]1NC(=O)[C@H](C)N(Cc2ccc(Cl)cc2Oc2ccc(-c3cnc4n3CCN(C(=O)C3CCOC3)C4)cc2)C(=O)C[C@@H](Cc2ccccc2)C(=O)N(C)[C@@H](C)CNC(=O)C[C@H](Cc2ccc(Cl)cc2)N(C)C1=O (stereo partly shown) . 93.15

The measured values listed here are drawn from patent US20230089867A1.
